target: DNA cross-link repair 1A protein (Homo sapiens); assay: Inhibition of SNM1A (unknown origin) assessed as reduction in oligonucleotide digestion at 1 mM using 21mer fluorescent oligonucleotide as substrate preincubated for 5 mins followed by substrate addition and measured after 1 hr by PAGE analysis; conditions: time 65.0 min
Active and inactive are the calls of the source. The rule behind the calls is not given here.
Hi! Could you answer with just one of these? class 1 for active, class 0 for inactive

Completed entries (count: 8):
molecule: CCN(CC)c1c(N[C@H]2C[C@H](n3cc(C)c(=O)[nH]c3=O)O[C@@H]2CO)c(=S)c1=S
class label: class 1
//
molecule: Cc1cn([C@H]2C[C@H](O)[C@@H](CNc3c(Nc4ccccc4O)c(=O)c3=O)O2)c(=O)[nH]c1=O
class label: class 0
//
molecule: Cc1cn([C@H]2C[C@H](O)[C@@H](CNc3c(O)c(=O)c3=O)O2)c(=O)[nH]c1=O
class label: class 0
//
molecule: CCN(CC)c1c(NC[C@H]2O[C@@H](n3cc(C)c(=O)[nH]c3=O)C[C@@H]2O)c(=O)c1=O
class label: class 0
//
molecule: CCOc1c(NC[C@H]2O[C@@H](n3cc(C)c(=O)[nH]c3=O)C[C@@H]2O)c(=O)c1=O
class label: class 0
//
molecule: Cc1cn([C@H]2C[C@H](O)[C@@H](CNc3c(NCCO)c(=O)c3=O)O2)c(=O)[nH]c1=O
class label: class 0
//
molecule: Cc1cn([C@H]2C[C@H](Nc3c(N(C)O)c(=O)c3=O)[C@@H](CO)O2)c(=O)[nH]c1=O
class label: class 1
//
molecule: Cc1cn([C@H]2C[C@H](O)[C@H](CNc3c(N[C@H]4C[C@H](n5cc(C)c(=O)[nH]c5=O)O[C@@H]4CO)c(=S)c3=S)O2)c(=O)[nH]c1=O
class label: class 1

**Query** Would you mind telling me which call this test gave CN(O)c1c(N[C@H]2[C@@H](O)[C@H](n3ccc(=O)[nH]c3=O)O[C@@H]2CO)c(=O)c1=O ?
**Result** class 1

**Query** What do you have for Cc1cn([C@H]2C[C@H](O)[C@@H](CO)O2)c(=O)[nH]c1=O ?
**Result** class 0
